pIC50 listing for selected compounds.
Assay: Antiinflammatory activity in rat neonatal brain microglia cells assessed as phorbol 12-myristate 13-acetate-stimulated superoxide release
Format: functional, cell-based
pIC50: −log10 of the molar value.

[
  {
    "compound": "CC/C=C/[C@H](CC)C[C@]1(CC)C=C(CC)/C(=C/C(=O)OC)O1",
    "pIC50": "< 5.00"
  },
  {
    "compound": "CC/C=C/[C@H](CC)C[C@@]1(C)C[C@@H](CC)[C@@H](CC(=O)OC)OO1",
    "pIC50": "< 6.00"
  },
  {
    "compound": "CC/C=C/[C@H](CC)C[C@]1(C)C=C(CC)/C(=C/C(=O)OC)O1",
    "pIC50": "< 5.00"
  },
  {
    "compound": "CCCC[C@H](CC)C[C@]1(CC)C=C(CC)/C(=C\\C(=O)OC)O1",
    "pIC50": "< 5.00"
  },
  {
    "compound": "CC/C=C/[C@H](CC)C/C(=C/[C@@]1(CC)C[C@H](CC)[C@H](CC(=O)O)OO1)CC [PLAKORTIDE N]",
    "pIC50": "< 5.00"
  }
]

* * *

System: Leishmania chagasi
Assay: Antileishmanial activity against Leishmania chagasi intracellular amastigotes infected in hamster macrophages after 48 hrs […]
Assay type: functional, organism-based
Conditions: Leishmania chagasi, 48 h; read-out: IC50
Below is a list of entries, each paired with its recorded IC50 value.

[
  {
    "compound": "CC/C=C/[C@H](CC)C/C(=C/[C@@]1(CC)C[C@H](CC)[C@H](CC(=O)O)OO1)CC [PLAKORTIDE N]",
    "IC50": "0.5 µg/mL"
  },
  {
    "compound": "CC/C=C/[C@H](CC)C[C@]1(C)C=C(CC)/C(=C/C(=O)OC)O1",
    "IC50": "3.1 µg/mL"
  },
  {
    "compound": "CC/C=C/[C@H](CC)C[C@]1(CC)C=C(CC)/C(=C/C(=O)OC)O1",
    "IC50": "1.6 µg/mL"
  },
  {
    "compound": "CCCC[C@H](CC)C[C@]1(CC)C=C(CC)/C(=C\\C(=O)OC)O1",
    "IC50": "3.4 µg/mL"
  }
]

* * *

Experiment: Toxicity in BALB/c mouse erythrocytes assessed as hemolysis at 6.25 ug/ml after 2 hrs
Assay type: cell-based, Erythrocyte
Settings: read-out: Activity

[
  {
    "compound": "CC/C=C/[C@H](CC)C[C@@]1(C)C[C@@H](CC)[C@@H](CC(=O)OC)OO1",
    "units": "%",
    "hemolysis at 2 h, 6.25 ug/ml": 0
  },
  {
    "compound": "CCCC[C@H](CC)C[C@]1(CC)C=C(CC)/C(=C\\C(=O)OC)O1",
    "units": "%",
    "hemolysis at 2 h, 6.25 ug/ml": 0
  },
  {
    "compound": "CC/C=C/[C@H](CC)C[C@]1(C)C=C(CC)/C(=C/C(=O)OC)O1",
    "units": "%",
    "hemolysis at 2 h, 6.25 ug/ml": 1.8
  },
  {
    "compound": "CC/C=C/[C@H](CC)C/C(=C/[C@@]1(CC)C[C@H](CC)[C@H](CC(=O)O)OO1)CC [PLAKORTIDE N]",
    "units": "%",
    "hemolysis at 2 h, 6.25 ug/ml": 0
  },
  {
    "compound": "CC/C=C/[C@H](CC)C[C@]1(CC)C=C(CC)/C(=C/C(=O)OC)O1",
    "units": "%",
    "hemolysis at 2 h, 6.25 ug/ml": 7.24
  }
]
